Biological target: SARS-CoV-2 M^pro enzyme (Severe acute respiratory syndrome coronavirus 2, UniProt P0DTD1)
Test: FRET-based enzyme assay and IC50 determination
Assay type: biochemical
Settings: 4.6 μM enzyme, HEPES pH 6.5
property: IC50 (µM)
I only need the number, in µM, no unit after it.

Q) Request: IC50, test system SARS-CoV-2 M^pro enzyme (Severe acute respiratory syndrome coronavirus 2, UniProt P0DTD1), entry O=C(CSc1cnc2ccccc2n1)NC1CCCC1 [CB03]
A) 301

----------
Biological target: SARS-CoV-2 M^pro enzyme (Severe acute respiratory syndrome coronavirus 2, UniProt P0DTD1)
Assay: Inhibition kinetic study (Lineweaver–Burk, FRET assay)
Assay type: biochemical
Conditions: from slope of Lineweaver–Burk curves vs. inhibitor concentration
property: pKi
The value called pKi is obtained by taking minus log10 of the concentration in mol/L.

Q) Request: pKi, test system SARS-CoV-2 M^pro enzyme (Severe acute respiratory syndrome coronavirus 2, UniProt P0DTD1), entry O=C(CSc1cnc2ccccc2n1)NC1CCCC1
A) 3.59

Reference for the values: paper PMC9572942
